The reported numbers originate from patent US20190321483A1.

Overview of reported EC50 (ng/ml), cell viability after 7 days, Human total nucleated cells across a group of binders:
TESTED ON: Human cKIT on human mobilized peripheral blood hematopoietic stem cells (human, UniProt P10721 26-976)
ASSAY OVERVIEW: cell-based or functional assay
State just the number; it will be interpreted in ng/mL.

Take a look at these entries with their results.
{"columns": ["BINDER", "MEASUREMENT UNIT", "REPORTED VALUE"],
 "data": [
  ["J19: Anti-cKIT Fab′2 conjugated to Compound (2), DAR 4 (Fab, V domains shown, Compound (2) on native cysteine LC-214C (EU); Compound (2) on native cysteines HC-220C-226C-229C (EU)) VH: QVQLVQSGAEVKKPGSSVKVSCKASGGTFSSHALSWVRQAPGQGLEWMGGIIPSFGTADYAQKFQGRVTITADESTSTAYMELSSLRSEDTAVYYCARGLYDFDYWGQGTLVTVSS VL: DIQMTQSPSSLSASVGDRVTITCRASQDISQDLAWYQQKPGKAPKLLIYDASSLQSGVPSRFSGSGSGTDFTLTISSLQPEDFAVYYCQQYYYLPSTFGQGTKVEIKR", "ng/mL", 14],
  ["J2: Anti-cKIT Fab′2 conjugated to Compound (1), DAR 4 (Fab, V domains shown, Compound (1) on native cysteine LC-214C (EU); Compound (1) on native cysteines HC-220C-226C-229C (EU)) VH: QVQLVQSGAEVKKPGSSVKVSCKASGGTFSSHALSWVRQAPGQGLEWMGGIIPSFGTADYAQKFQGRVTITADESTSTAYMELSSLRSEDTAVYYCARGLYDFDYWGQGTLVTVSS VL: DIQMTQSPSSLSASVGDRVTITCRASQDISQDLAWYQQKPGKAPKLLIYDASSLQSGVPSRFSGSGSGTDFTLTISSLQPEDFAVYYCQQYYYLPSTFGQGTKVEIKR", "ng/mL", 58],
  ["J1: Anti-cKIT Fab′1 conjugated to Compound (1), DAR 4 (Fab, V domains shown, Compound (1) on native cysteine LC-214C (EU); Compound (1) on native cysteines HC-220C-226C-229C (EU)) VH: QVQLVQSGAEVKKPGSSVKVSCKASGGTFSSYAISWVRQAPGQGLEWMGVIFPAEGAPGYAQKFQGRVTITADESTSTAYMELSSLRSEDTAVYYCARGGYISDFDVWGQGTLVTVSS VL: DIQMTQSPSSLSASVGDRVTITCRASQSISNYLAWYQQKPGKAPKLLIYDASSLQSGVPSRFSGSGSGTDFTLTISSLQPEDFATYYCQQYYYESITFGQGTKVEIKR", "ng/mL", 48]
]}

# next binder below
**Query** For the binder shown here, J20: Anti-cKIT Fab′3 conjugated to mc-MMAF, DAR 4 (Fab, V domains shown, mc-MMAF on native cysteine LC-214C (EU); mc-MMAF on native cysteines HC-220C-226C-229C (EU)) VH: QVQLVQSGAEVKKPGSSVKVSCKASGGTFSSYAISWVRQAPGQGLEWMGTIGPFEGQPRYAQKFQGRVTITADESTSTAYMELSSLRSEDTAVYYCARGGYISDFDVWGQGTLVTVSS VL: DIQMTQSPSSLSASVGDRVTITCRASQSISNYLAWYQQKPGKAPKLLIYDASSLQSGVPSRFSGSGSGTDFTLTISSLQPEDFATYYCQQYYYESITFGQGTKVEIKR , give the reported EC50 (ng/ml), cell viability after 7 days, Human total nucleated cells.
**Result** 20
